TEST_PROTOCOL: NCI Yeast Anticancer Drug Screen. Data for the cln2 rad14 strain (AID 165);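 further: 0% = growth equal to vehicle treated cultures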
EXPERIMENTAL_CONTEXT: S. cerevisiae cln2 rad14 strain, at 5.0 µM (retest, dose inferred, filed as 0.5), stronger effect = higher value
Experimental: Growth inhibition of yeast strains with defined genetic alterations is measured as a screen for potential anti-cancer activity. Selected strains with alterations in DNA damage repair or cell cycle control were exposed to compounds and growth inhibition was measured relative to vehicle treated controls. The strain used in this assay is cln2 rad14
The panel holds about 79,000 compounds, 15% with a hit somewhere; the sample as a whole holds those more often.
QUANTITY_MEASURED: growth inhibition (%)
Give the quantity in %, number only.

Previously resolved entries follow.
# COMPOUND, growth inhibition / %
measured = [
    ("COc1ccc(C2=CC(=O)C=CC2=O)cc1", -5),
    ("Oc1ccc2c(c1)Cc1ccccc1-2", -8),
    ("CC(/C=C/NNC1=NC(c2ccccc2)C(c2ccccc2)=NN1)Sc1ccccc1N (stereo unspecified)", 18),
]

Lookup: For the compound `Nc1ccc2c(S(=O)(=O)O)cc(S(=O)(=O)O)cc2c1` , what growth inhibition is on record?
Found: 3

Lookup: I'd like to know its growth inhibition. The compound in question is `Cn1c2nc(-[n+]3ccccc3)nc-2c([O-])n(C)c1=O`
Found: -2

Lookup: Which measured growth inhibition value corresponds to `CCOC(=O)C(=N\Nc1c(C)cccc1C)/C(C)=N\NC(N)=S` ?
Found: -13

###

TEST_PROTOCOL: NCI Yeast Anticancer Drug Screen. Data for the rad50 strain (AID 155);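 further: 0% = growth of vehicle-only cultures of the same strain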
EXPERIMENTAL_CONTEXT: S. cerevisiae rad50 strain growth inhibition; at 5.0 µM (retest, dose inferred, filed as 0.5); stronger effect = higher value
Protocol: Growth inhibition of yeast strains with defined genetic alterations is measured as a screen for potential anti-cancer activity. Selected strains with alterations in DNA damage repair or cell cycle control were exposed to compounds and growth inhibition was measured relative to vehicle treated controls. The strain used in this assay is rad50
About 79,000 compounds went through this panel and 15% of them were active in at least one assay; those are over-represented in the sample as a whole.
QUANTITY_MEASURED: growth inhibition (%)
Only the number, expressed in %, is required.

Here is how some molecules turned out for growth inhibition.
# MOLECULE, QUANTITY_MEASURED, ENDPOINT_RESULT
records = [
    ("C/C(=N/NC(=O)c1ccccc1S(N)(=O)=O)C(CN1CCCCC1)C(C1=C(O)C2C=CC=CC2OC1=O)c1ccccc1 (centres undefined)", "growth inhibition", 41),
    ("CCNC(=S)NC1CCCCCCCCCCC1", "growth inhibition", 99),
    ("COc1ccc(CNc2nc3cc(C(F)(F)F)ccc3nc2C)cc1OC", "growth inhibition", -9),
    ("COC1=C2C[C@@H](C)C[C@@H](OC)[C@@H](O)[C@H](C)/C=C(\\C)[C@@H](OC(N)=O)[C@H](OC)/C=C\\C=C(/C)C(=O)NC(=CC1=O)C2=O", "growth inhibition", 61),
    ("CCOP(=O)(OCC)/C(C#N)=C/c1ccc(C(F)(F)F)cc1", "growth inhibition", 20),
    ("O=c1cc(-c2ccccc2)oc2ccc(-c3ccc4oc(-c5ccccc5)cc(=O)c4c3)cc12", "growth inhibition", 8),
    ("Cc1c(N=Nc2c(S(=O)(=O)O)cc3cc(S(=O)(=O)O)c(N=Nc4c(C)n(C)n(-c5ccccc5)c4=O)c(O)c3c2O)c(=O)n(-c2ccccc2)n1C", "growth inhibition", -20),
    ("C=C(CN(C)C)C(=O)c1ccccc1[N+](=O)[O-]", "growth inhibition", 1),
]

Lookup: Form field: reported growth inhibition of `O=[N+]([O-])c1ccccc1N=Nc1c(O)[nH]c2ccc(S(=O)(=O)O)cc12`
Found: 73

###

TEST_PROTOCOL: NCI Yeast Anticancer Drug Screen. Data for the bub3 strain (AID 167)
EXPERIMENTAL_CONTEXT: S. cerevisiae bub3 mutant strain, at 5.0 µM (retest, dose inferred, filed as 0.5), stronger effect = higher value
Compounds without any hit were thinned out: in the full panel of roughly 79,000, 15% have a hit.
QUANTITY_MEASURED: growth inhibition (%)
// units = %; emit number, no label

# COMPOUND, QUANTITY_MEASURED, ENDPOINT_RESULT
rows = [
    ("CC1CCN(CCCOC(=O)c2ccccc2)CC1", "growth inhibition", 31),
]

Lookup: May I ask what growth inhibition has been recorded for `CCOc1ccc2c(c1)[n+]([O-])c(-c1ccccc1)c(N)[n+]2[O-]` ?
Found: 69

Lookup: For the compound `O=Nc1c(NO)c2ccccc2c2ccccc12` , what growth inhibition is on record?
Found: -9

Lookup: Quick one: growth inhibition for `CN1CC[C@@H](c2ccccc2)[C@@H](O)C1` ?
Found: 0

Lookup: Query (compound): `CCc1cc2nc3c(=O)[nH]c(=O)nc-3n(CCN(CCO)CCO)c2cc1CC` ; field requested: growth inhibition
Found: 2

###

TEST_PROTOCOL: NCI Yeast Anticancer Drug Screen. Data for the cln2 rad14 strain (AID 165);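 further: 0% = growth equal to vehicle treated cultures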
EXPERIMENTAL_CONTEXT: S. cerevisiae cln2 rad14 strain, at 50.0 µM
The panel holds about 79,000 compounds, 15% with a hit somewhere; the sample as a whole holds those more often. Active and inactive are the calls of the source. Cut-off read from the data, not from the text of the source: active = growth inhibition above about 70%; inactive = the rest.
A correct response names exactly one class from label 1 for active, label 0 for inactive

Reference set, count: 4
# COMPOUND, LABEL_VALUE
measured = [
    ("Cc1ccc(/C=C2\\CCC/C(=C\\c3ccc(O)c(CN4CCCCC4)c3)C2=O)cc1", "label 0"),
    ("Cc1cccc(N2C(c3ccccc3)c3ccc(C)cc3NS2=O)c1 (stereo not given)", "label 1"),
    ("O=C(CCC(O)(c1ccccc1)c1ccccc1)c1ccccc1", "label 0"),
    ("Cc1cc([N+](=O)[O-])cc(C)[n+]1[O-]", "label 0"),
]

Lookup: # fetch the recorded call for `C=Cc1cc(O)cc2c1-c1ccc(O)c(C)c1CC2` here
Found: label 1

Lookup: Returns: the outcome recorded for `O=c1[nH]c2c([N+](=O)[O-])cc(Cl)cc2nc1/C=C(\O)c1ccc(F)cc1` in this assay.
Found: label 0

Lookup: Recorded call for `Cc1cc2c(C(C)C)c(O)c(O)c(C=Nc3ccc(C(=O)O)cc3)c2c(O)c1-c1c(C)cc2c(C(C)C)c(O)c(O)c(C=Nc3ccc(C(=O)O)cc3)c2c1O` ?
Found: label 1

Lookup: Assay outcome for `CS(=O)(=O)OCCN(CCOS(C)(=O)=O)c1ccc(C=Nc2ccc(-c3csc(-c4ccc(Br)cc4)n3)cc2)cc1` : what was it?
Found: label 1

Lookup: Which outcome did this test record for the compound `CC(=O)c1cccc([N+](=O)[O-])c1` ?
Found: label 0

Lookup: Could you kindly confirm the outcome this assay logged for `Cc1cccc(Cc2ccc(Cl)cc2)c1O` ?
Found: label 1

###

TEST_PROTOCOL: NCI Yeast Anticancer Drug Screen. Data for the rad50 strain (AID 155);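 further: 0% = growth of vehicle-only cultures of the same strain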
EXPERIMENTAL_CONTEXT: S. cerevisiae rad50 strain growth inhibition; at 5.0 µM (retest, dose inferred, filed as 0.5); stronger effect = higher value
This is part of a sample that, as a whole, favours compounds with a hit. Of some 79,000 tested, about 15% had one in any assay.
Consider the following compounds and their measured growth inhibition readings.
// return numeric value only (unit: %, not printed)

Below are worked cases with known answers.
# COMPOUND, ENDPOINT_RESULT
measured = [
    ("CC(=O)N[C@H]1CC[C@H]2[C@@H]3CCC4=CC(=O)CC[C@]4(C)[C@H]3CC[C@]12C", 5),
    ("CCCCn1c(C)nc2cc(C(F)(F)F)cc(N)c21", 0),
    ("CNC(=O)OCc1c(COC(=O)NC)c2n(c1C)-c1ccccc1CCC2", 23),
    ("Clc1ccc(Oc2nc(Cl)nc3[nH]ncc23)cc1", 7),
]

Lookup: State the recorded growth inhibition for this entry: C[C@@H]1CN(CC2COc3ccccc3O2)[C@@H](C)CN1CC1COc2ccccc2O1 (stereo partly drawn)
Found: 63

Lookup: What value of growth inhibition has been reported for the following compound? `O=C1c2ccccc2-c2nc3ncccc3cc21`
Found: 27

Lookup: Please give the measured growth inhibition for this compound: `O=[N+]([O-])c1ccc2c(c1)Cc1cc(Cl)ccc1-2`
Found: 7

Lookup: Need growth inhibition, item C#CCCOC(=O)CC1=C(C)/C(=C/c2ccc(S(C)=O)cc2)c2ccc(F)cc21 (stereo not drawn)
Found: 23

Lookup: What value of growth inhibition has been reported for the following compound? `COc1ccc(SC2=C(N(C)C)C(=O)c3ccccc3C2=O)cc1`
Found: 2

Lookup: Quick check: growth inhibition of Cc1cccc(CC(C)(C)C)c1NC(=O)C(=O)C(C(=O)c1ccc2ccccc2c1)C1OC(=O)c2ccccc21 (stereo not drawn) ?
Found: 6

Lookup: Give the measured growth inhibition of `Cc1cc(C)n2nc(N)c(C#N)c2c1C#N` .
Found: -2

Lookup: Entry `Cc1ccc(C(=O)CCCN2CCOCC2)c(C)c1` has what growth inhibition?
Found: 13
